# system tested: T1, human PVRIG-mFc protein (Acro, PVG-H5253) (human, UniProt Q6DKI7 41-171, limits assumed)
# T1 construct: extracellular domain; Bought protein; also called PVRIG-ECD-mFc; not shown: mouse Fc tag of the bought protein
# T1 sequence (looked up): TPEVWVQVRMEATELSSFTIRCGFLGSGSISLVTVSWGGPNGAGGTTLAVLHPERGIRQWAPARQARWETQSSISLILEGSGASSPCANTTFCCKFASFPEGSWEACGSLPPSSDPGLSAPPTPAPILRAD
# experiment: FACS blocking of PVRIG-mFc binding to CHO-K1-CD112 cells; competitor CD112
readout: % AUC to COM701-hIgG4 (%)
# value in %; strip the unit string

Before answering, review these 5 worked examples.
binder	readout	recorded result
PVRIG-A118-H7 (Fc fusion, VHH-human IgG1 Fc format is stated for the parental VHH antibodies; not restated for the humanized variants; also called A118.VH7; not shown: human IgG1 hinge-CH2-CH3 (Fc)) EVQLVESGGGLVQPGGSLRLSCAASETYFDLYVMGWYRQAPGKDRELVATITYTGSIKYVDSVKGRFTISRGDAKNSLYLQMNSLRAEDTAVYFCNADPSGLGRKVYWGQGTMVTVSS	% AUC to COM701-hIgG4	124
PVRIG-A118-H4 (Fc fusion, VHH-human IgG1 Fc format is stated for the parental VHH antibodies; not restated for the humanized variants; also called A118.VH4; not shown: human IgG1 hinge-CH2-CH3 (Fc)) EVQLVESGGGLVQPGGSLRLSCAASETYFDLYVMGWYRQAPGKDRELVATITYTGSIKYVDSVKGRFTISRGDAKNSLSLQMNSLRAEDTAVYYCNADPSGLGRKVYWGQGTMVTVSS	% AUC to COM701-hIgG4	116
PVRIG-A105-H3a (Fc fusion, VHH-human IgG1 Fc format is stated for the parental VHH antibodies; not restated for the humanized variants; also called A105.VH3a; not shown: human IgG1 hinge-CH2-CH3 (Fc)) EVQLVESGGGLVQPGGSLRLSCAASGRTFDRHTMTWFRQAPGKEREFVATASRIPGDTYYVDSVKGRFTISRDNAKNSVYLQMNSLRAEDTAVYYCAATSAYSSEVDSYEKGSWYDNWGQGTMVTVSS	% AUC to COM701-hIgG4	3530
PVRIG-A118-H3 (Fc fusion, VHH-human IgG1 Fc format is stated for the parental VHH antibodies; not restated for the humanized variants; also called A118.VH3; not shown: human IgG1 hinge-CH2-CH3 (Fc)) EVQLVESGGGLVQPGGSLRLSCAASETYFDLYVMGWYRQAPGKDRELVATITYTGSIKYVDSVKGRFTISRGDAKNSLYLQMNSLRAEDTAVYYCNADPSGLGRKVYWGQGTMVTVSS	% AUC to COM701-hIgG4	127
PVRIG-A118-H2 (Fc fusion, VHH-human IgG1 Fc format is stated for the parental VHH antibodies; not restated for the humanized variants; also called A118.VH2; not shown: human IgG1 hinge-CH2-CH3 (Fc)) EVQLVESGGGLVQPGGSLRLSCAASETYFDLYVMGWYRQAPGKDRELVATITYTGSIKYVDSVKGRFTISRDNAKNSLYLQMNSLRAEDTAVYYCNADPSGLGRKVYWGQGTMVTVSS	% AUC to COM701-hIgG4	142

Measured % AUC to COM701-hIgG4, PVRIG-A50-H1 (Fc fusion, VHH-human IgG1 Fc format is stated for the parental VHH antibodies; not restated for the humanized variants; also called A50.VH1; not shown: human IgG1 hinge-CH2-CH3 (Fc)) EVQLVESGGGLVQPGGSLRLSCAASGFTFSYYDMSWVRQAPGKGLEWVSTINSNGGRTSYVDSVKGRFTISRDNSKNTLYLQMNSLRAEDTAVYYCVEGDPHNFGLENLSLRDFGSWGQGTMVTVSS : 115

% AUC to COM701-hIgG4 for PVRIG-A50-H1e (Fc fusion, VHH-human IgG1 Fc format is stated for the parental VHH antibodies; not restated for the humanized variants; also called VH1e; not shown: human IgG1 hinge-CH2-CH3 (Fc)) EVQLVESGGGLVQPGGSLRLSCAASGFTFSYYDMSWVRQAPGKGLEWVSTINSNAGRTSYVDSVKGRFTISRDNSKNTLYLQMNSLRAEDTAVYYCVEGDPHNFGLESLSLRDFGSWGQGTMVTVSS is 126

Summary for this binder, PVRIG-A50 (Fc fusion, Alpaca VHH expressed as VHH-hinge-CH2-CH3 of human IgG1 (heavy-chain antibody); also called PVRIG-50; not shown: human IgG1 hinge-CH2-CH3 (Fc)) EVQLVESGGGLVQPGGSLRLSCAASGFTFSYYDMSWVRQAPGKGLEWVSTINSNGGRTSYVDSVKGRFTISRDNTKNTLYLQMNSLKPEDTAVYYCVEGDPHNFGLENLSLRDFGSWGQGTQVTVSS : % AUC to COM701-hIgG4 is 122

// % AUC to COM701-hIgG4 lookup, binder = PVRIG-A118-H6 (Fc fusion, VHH-human IgG1 Fc format is stated for the parental VHH antibodies; not restated for the humanized variants; also called A118.VH6; not shown: human IgG1 hinge-CH2-CH3 (Fc)) EVQLVESGGGLVQPGGSLRLSCAASETYFDLYVMGWYRQAPGKDRELVATITYTGSIKIVDSVKGRFTISRGDAKNSLYLQMNSLRAEDTAVYYCNADPSGLGRKVYWGQGTMVTVSS , result: 119

Record PVRIG-A50-H1c (Fc fusion, VHH-human IgG1 Fc format is stated for the parental VHH antibodies; not restated for the humanized variants; also called A50.VH1c; not shown: human IgG1 hinge-CH2-CH3 (Fc)) EVQLVESGGGLVQPGGSLRLSCAASGFTFSYYDMSWVRQAPGKGLEWVSTINSDGGRTSYVDSVKGRFTISRDNSKNTLYLQMNSLRAEDTAVYYCVEGDPHNFGLENLALRDFGSWGQGTMVTVSS , field % AUC to COM701-hIgG4: 132

% AUC to COM701-hIgG4 reading for PVRIG-A50-H2a (Fc fusion, VHH-human IgG1 Fc format is stated for the parental VHH antibodies; not restated for the humanized variants; also called A50.VH2a; not shown: human IgG1 hinge-CH2-CH3 (Fc)) EVQLVESGGGLVQPGGSLRLSCAASGFTFSYYDMSWVRQAPGKGLEWVSTINSNAGRTSYVDSVKGRFTISRDNTKNTLYLQMNSLRAEDTAVYYCVEGDPHNFGLESLSLRDFGSWGQGTMVTVSS : 112
